B1: HHH_rd1_0493 (parent)
chain: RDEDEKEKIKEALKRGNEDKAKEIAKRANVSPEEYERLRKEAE

- Variants of: B1
- Procedure Summary: folding stability dG (cDNA display proteolysis); higher = more stable
- Test Context: PBS, room temperature
Measured Metric: folding stability dG
Number first, unit second: that is the form wanted.

Q: Write down folding stability dG measured for item RDEDEKEKINEALKRGNEDKAKEIAKRANVSPEEYERLRKEAE [K10N]
Result: 0.92 kcal/mol

Q: Please indicate folding stability dG recorded for RIEDEKEKIKEALKRGNEDKAKEIAKRANVSPEEYERLRKEAE [D2I]
Result: 3.21 kcal/mol
